Conditions: 363.15 K; Liquid; Closed cell (Static) method
endpoint: vapor or sublimation pressure (kPa)

I: CCC1CCCCC1 [ethylcyclohexane]
II: CCCCCCCCCCCC [dodecane]
III: CC1CCCCC1 [methylcyclohexane]
IV: CCCCCCCCCC [decane]
Descending by vapor or sublimation pressure please, for everything listed above. Respond with the label ranking, as requested. III, I, IV, II
(III: 73.3 kPa, I: 28.9 kPa, IV: 6.6 kPa, II: 1.2 kPa)

###

Details: 333.15 K; Liquid; Closed cell (Static) method
endpoint: vapor or sublimation pressure (kPa)

{"compound": "CC1CCCCC1 [methylcyclohexane]", "vapor or sublimation pressure (kPa)": 27.1}

a: CCC1CCCCC1 [ethylcyclohexane]
b: CCCCCCCCCC [decane]
c: CCCCCCC [heptane]
d: C1CCCCC1 [cyclohexane]
Ascending by vapor or sublimation pressure, please. Respond with the label ranking, as requested. b, a, c, d
(b: 1.7 kPa, a: 9.3 kPa, c: 28.2 kPa, d: 52 kPa)

###

Settings: 303.15 K; Liquid; Closed cell (Static) method
endpoint: vapor or sublimation pressure (kPa)

{"smiles-structure": "CCC1CCCCC1", "vapor or sublimation pressure / kPa": 2.1}
{"smiles-structure": "C1CCCCC1", "vapor or sublimation pressure / kPa": 16.4}
{"smiles-structure": "CCCCCCC", "vapor or sublimation pressure / kPa": 7.9}

P: CCCCCCCCCC
Q: CC1CCCCC1
I'm curious, which of these has a smaller vapor or sublimation pressure number: P or Q ? # reply format: chosen label P
(P: 0.2 kPa, Q: 7.9 kPa)

###

Details: 343.15 K; Liquid; Closed cell (Static) method
endpoint: vapor or sublimation pressure (kPa)

Example compounds with recorded vapor or sublimation pressure:
{"smiles-structure": "CCCCCCCCCC", "endpoint": "vapor or sublimation pressure", "recorded-value": 2.7}
{"smiles-structure": "C1CCCCC1", "endpoint": "vapor or sublimation pressure", "recorded-value": 72.5}
{"smiles-structure": "CC1CCCCC1", "endpoint": "vapor or sublimation pressure", "recorded-value": 38.7}
{"smiles-structure": "CCCCCCCCCCCC", "endpoint": "vapor or sublimation pressure", "recorded-value": 0.4}

I: CCCCCCC
II: CCC1CCCCC1
Which one would you say has the larger vapor or sublimation pressure value: I , or II ? # reply format: chosen label I
(I: 40.6 kPa, II: 13.9 kPa)

###

Conditions: 353.15 K; Liquid; Closed cell (Static) method
endpoint: vapor or sublimation pressure (kPa)

Example compounds with recorded vapor or sublimation pressure:
{"smiles-structure": "CCC1CCCCC1", "recorded-value": 20.4}
{"smiles-structure": "CCCCCCCCCCCC", "recorded-value": 0.7}
{"smiles-structure": "CC1CCCCC1", "recorded-value": 53.8}

I: CCCCCCC
II: CCCCCCCCCC
Which one would you say has the larger vapor or sublimation pressure value: I , or II ? # reply format: chosen label I
(I: 57.1 kPa, II: 4.3 kPa)

###

Settings: 323.15 K; Liquid; Closed cell (Static) method
endpoint: vapor or sublimation pressure (kPa)

{"smiles-structure": "CC1CCCCC1", "unit-of-measurement": "kPa", "vapor or sublimation pressure": 18.5}

1: C1CCCCC1
2: CCCCCCC
3: CCCCCCCCCC
4: CCC1CCCCC1
Ascending by vapor or sublimation pressure, please. Respond with the label ranking, as requested. 3, 4, 2, 1

###

Conditions: 313.15 K; Liquid; Closed cell (Static) method
endpoint: vapor or sublimation pressure (kPa)

Example compounds with recorded vapor or sublimation pressure:
{"smiles-structure": "CCCCCCCCCC", "vapor or sublimation pressure (kPa)": 0.6}
{"smiles-structure": "CCC1CCCCC1", "vapor or sublimation pressure (kPa)": 3.7}
{"smiles-structure": "CC1CCCCC1", "vapor or sublimation pressure (kPa)": 12.3}

I: C1CCCCC1
II: CCCCCCC
Which one would you say has the larger vapor or sublimation pressure value: I , or II ? # reply format: chosen label I
